A set of molecules tested on wild-type Epidermal Growth Factor Receptor (EGFR) (Homo sapiens (Human), UniProt P00533), with measured IC50:
Please give a number only; it is taken to be in µM.

Worked cases, answers included:
| Molecule | IC50 / µM |
| --- | --- |
| O=C1N[C@@H]2CCC[C@@H]2c2[nH]c(-c3ccnc(NC(=O)C(CC(F)F)c4ccc(F)cc4)c3)c(Nc3ccccc3)c21 (single isomer, unassigned; (-)) [Example 24] | 0.31 |
| CCC1CNC(=O)c2c1[nH]c(-c1ccnc(NC(=O)C(CC(F)F)c3ccc(F)cc3)c1)c2Nc1ccccc1 (stereo not drawn) [Example 4] | 1.2 |
| Cn1ccc2[nH]c(-c3ccnc(NC(=O)C(CC(F)F)c4ccc(F)cc4)c3)c(Nc3ccccc3)c2c1=O (racemic) [Example 28] | 12 |

wild-type Epidermal Growth Factor Receptor (EGFR) (Homo sapiens (Human), UniProt P00533) assay, molecule CC1CN(C)C(=O)c2c1[nH]c(-c1ccnc(NC(=O)C(C)c3ccc(F)cc3)c1)c2Nc1ccccc1 (racemic) [Example 9] , recorded IC50 = 13

wild-type Epidermal Growth Factor Receptor (EGFR) (Homo sapiens (Human), UniProt P00533) assay, molecule CN1CC(CC(F)(F)F)c2[nH]c(-c3ccnc(NC(=O)Cc4ccc(F)cc4)c3)c(Nc3ccccc3)c2C1=O (racemic) [Example 14] , recorded IC50 = 1.1

wild-type Epidermal Growth Factor Receptor (EGFR) (Homo sapiens (Human), UniProt P00533) assay, molecule CCC1CNC(=O)c2c1[nH]c(-c1ccnc(NC(=O)Cc3ccc(F)cc3)c1)c2Nc1ccccc1 (single isomer, unassigned) [Example 3] , recorded IC50 = 0.32

wild-type Epidermal Growth Factor Receptor (EGFR) (Homo sapiens (Human), UniProt P00533) assay, molecule Cn1cc(CC(F)(F)F)c2[nH]c(-c3ccnc(NC(=O)C(CC(F)F)c4ccc(F)cc4)c3)c(Nc3ccccc3)c2c1=O (single isomer, unassigned) [Example 37] , recorded IC50 = 0.12

* * *

- Test target: wild-type Epidermal Growth Factor Receptor (EGFR) (Homo sapiens (Human), UniProt P00533)
- Sequence (P00533 669-1210): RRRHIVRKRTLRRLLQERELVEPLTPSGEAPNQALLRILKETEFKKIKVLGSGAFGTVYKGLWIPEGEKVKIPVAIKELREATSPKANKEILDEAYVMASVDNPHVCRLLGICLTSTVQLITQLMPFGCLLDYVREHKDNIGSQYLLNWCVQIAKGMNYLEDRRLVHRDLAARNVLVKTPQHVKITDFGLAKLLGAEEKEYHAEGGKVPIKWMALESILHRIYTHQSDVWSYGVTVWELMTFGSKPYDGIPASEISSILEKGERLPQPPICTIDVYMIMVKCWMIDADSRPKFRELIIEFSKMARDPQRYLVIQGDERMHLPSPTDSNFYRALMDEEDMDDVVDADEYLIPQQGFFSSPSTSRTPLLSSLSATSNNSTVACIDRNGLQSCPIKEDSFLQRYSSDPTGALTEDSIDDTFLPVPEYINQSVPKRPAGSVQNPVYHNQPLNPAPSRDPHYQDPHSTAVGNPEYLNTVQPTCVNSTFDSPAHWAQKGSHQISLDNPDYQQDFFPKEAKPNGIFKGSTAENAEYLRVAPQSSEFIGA
Param label: returns 1 when IC50 < 1 µM, returns 0 otherwise, including exact equality.

Examples with answers:
| Compound | Group label |
| --- | --- |
| Cc1cn(C)c(=O)c2c(Nc3ccccc3)c(-c3ccnc(NC(=O)C(C)c4ccc(F)cc4)c3)[nH]c12 (single isomer, unassigned) [Example 41] | 0 |
| Cn1cc(CC(F)(F)F)c2[nH]c(-c3ccnc(NC(=O)Cc4ccc(F)cc4)c3)c(Nc3ccccc3)c2c1=O | 1 |
| CN1CC(CC(F)F)c2[nH]c(-c3ccnc(NC(=O)Cc4ccc(F)cc4)c3)c(Nc3ccccc3)c2C1=O (single isomer, unassigned) [Example 43] | 1 |
| O=C1N[C@@H]2CCC[C@@H]2c2[nH]c(-c3ccnc(NC(=O)C(CC(F)F)c4ccc(F)cc4)c3)c(Nc3ccccc3)c21 (single isomer, unassigned; (+)) [Example 22] | 0 |
| Cc1cn(C)c(=O)c2c(Nc3ccccc3)c(-c3ccnc(NC(=O)C(CC(F)F)c4ccc(F)cc4)c3)[nH]c12 (single isomer, unassigned) [Example 12] | 0 |

Is IC50 strictly under 1 µM for the entry Cc1cn(C)c(=O)c2c(Nc3ccccc3)c(-c3ccnc(NC(=O)C(C)c4ccc(F)cc4)c3)[nH]c12 (racemic) [Example 39] ?
0

Is IC50 strictly under 1 µM for the entry CN1CC(CC(F)(F)F)c2[nH]c(-c3ccnc(NC(=O)C(CC(F)F)c4ccc(F)cc4)c3)c(Nc3cscn3)c2C1=O (single isomer, unassigned) [Example 53] ?
0

Is IC50 strictly under 1 µM for the entry CN1CC(CC2CC2)c2[nH]c(-c3ccnc(NC(=O)Cc4ccc(F)cc4)c3)c(Nc3cscn3)c2C1=O (single isomer, unassigned) [Example 50] ?
0

Is IC50 strictly under 1 µM for the entry Cn1ccc2[nH]c(-c3ccnc(NC(=O)C(CC(F)F)c4ccc(F)cc4)c3)c(Nc3ccccc3)c2c1=O (single isomer, unassigned) [Example 29] ?
0

Is IC50 strictly under 1 µM for the entry CN1CC(CC(F)(F)F)c2[nH]c(-c3ccnc(NC(=O)C(CC(F)F)c4ccc(F)cc4)c3)c(Nc3cscn3)c2C1=O (racemic) [Example 52] ?
0

Is IC50 strictly under 1 µM for the entry Cc1cc2[nH]c(-c3ccnc(NC(=O)C(CC(F)F)c4ccc(F)cc4)c3)c(Nc3ccccc3F)c2c(=O)n1C (racemic) ?
0

Is IC50 strictly under 1 µM for the entry CN1CC(CC(F)(F)F)c2[nH]c(-c3ccnc(NC(=O)C(CC(F)F)c4ccc(F)cc4)c3)c(Nc3cscn3)c2C1=O (single isomer, unassigned) [Example 56] ?
0

Is IC50 strictly under 1 µM for the entry Cc1cn(C)c(=O)c2c(Nc3ccccc3)c(-c3ccnc(NC(=O)C(CC(F)F)c4ccc(F)cc4)c3)[nH]c12 (racemic) [Example 11] ?
0
